experiment: Confirmation and Secondary Assay for Modulators of Hemoglobin Beta Chain Splicing at IVS2 705 locus (AID 930); conditions: HeLa EGFP-705 splicing reporter, GFP fluorescence, 48 h; series mostly up to 46.1 µM;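 further: GFP fluorescence per well restored by corrected splicing of the IVS2-705 intron in EGFP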;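 on activation: HeLa cells stably expressing the EGFP-705 splicing reporter; % of control where 0% means no effect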
The source made the active and inactive calls. The call rests on the fitted dose curve; in most records, active means well fitted activation curve with a large enough effect; inconclusive means small, poorly fitted or top-dose-only effect; inactive means flat fitted curve, though single readings scatter.
Please answer using one outcome listed in 1.0 for active, 0.0 for inactive

Q: Dear colleague, could you share the recorded outcome for CC[C@@]1(O)CC2CN(CCc3c([nH]c4ccccc34)[C@](C(=O)OC)(c3cc4c(cc3OC)N(C)C3[C@@](O)(C(=O)OC)C(OC(C)=O)[C@]5(CC)C=CCN6CC[C@@]43C65)C2)C1 (stereo partly specified) when you have a moment?
Result: 0.0

Q: Record: CC1(C)SC2C(NC(=O)C(C(=O)O)c3ccccc3)C(=O)N2C1C(=O)O (stereo unspecified)
Result: 0.0

Q: Repeat with OC[C@@H]1O[C@@H](n2cnc3cncnc32)[C@@H](O)[C@H]1O
Result: 1.0

Q: Now the molecule C=NC(C(=O)NC1C(=O)N2C1SC(C)(C)C2C(=O)O)c1ccccc1 (stereo unspecified)
Result: 0.0

Q: Next molecule: Cc1c(C)c2c(c(C)c1O)CCC(C)(CCCC(C)CCCC(C)CCCC(C)C)O2 (stereo unspecified)
Result: 0.0

Q: Similarly, COCCNc1nc(-c2ccc(N(C)C)cc2)nc2ccccc12 ?
Result: 0.0

Q: Next record, please: CCCCC(=O)OC1CCC2C3CCc4cc(O)ccc4C3CC[C@]12C (stereo partly specified)
Result: 0.0

Q: Another molecule to check: COc1cccc(OC)c1C(=O)NC1C(=O)N2C1SC(C)(C)C2C(=O)O (stereo unspecified)
Result: 0.0

Q: # repeat for O=C(NC(CO)C(O)c1ccc([N+](=O)[O-])cc1)C(Cl)Cl (stereo unspecified)
Result: 0.0

Q: Item: OCCN1CC(O)C(O)C(O)C1CO (stereo unspecified)
Result: 0.0

Q: Try FC(F)(F)c1ccccc1-c1nc(Nc2ccncc2)c2ccccc2n1 next.
Result: 0.0

Q: Then Nc1ccn([C@@H]2O[C@@H](CO)[C@@H](O)[C@H]2O)c(=O)n1 ?
Result: 0.0

Q: Please answer likewise for OCC1O[C@H](O[C@H]2C(O)C(O)C(O)O[C@@H]2CO)C(O)C(O)C1O (stereo partly specified)
Result: 0.0

Q: Also, Nc1nc(/C(=C/CC(=O)O)C(=O)NC2C(=O)N3C(C(=O)O)=CCSC23)cs1 (stereo unspecified) please.
Result: 0.0

Q: Record: CCN1CCN(C(=O)NC(C(=O)NC2C(=O)N3C(C(=O)O)=C(CSc4nnnn4C)CSC23)c2ccc(O)cc2)C(=O)C1=O (stereo unspecified)
Result: 0.0

Q: Again, but for CC(=O)OCC1=C(C(=O)O)N2C(=O)C(NC(=O)CSc3ccncc3)[C@@H]2SC1 (stereo partly specified)
Result: 0.0
